assayTarget: T1, Epidermal Growth Factor Receptor 2 (HER2) (human, UniProt P04626 23-1255)
T1 construct: whole, on cells; the cell line is named under assay; also called ErbB-2; ERBB2
assayProcedure: FMAT competition on SKBR3 cells, periplasmic extract
assayEndpoint: % blocking of Herceptin binding

{"binder": "27D4 (VHH, C-term myc-His6 tag) VHH: EVQLVESGGSLVQPGGSLRLSCAASGFTFDDYAMTWVRQASGKGLEWVSSINWSGTHTDYADSVKGRFTISRNNANNTLYLQMNSLKSEDTAVYYCAKNWGDAGTTWFEKSGSAGQGTQVTVSS", "assayEndpoint": "% blocking of Herceptin binding", "result": "> 90%"}
{"binder": "15C5 (VHH, C-term myc-His6 tag) VHH: EVQLVESGGGLVQPGGSLKLSCVASGFSLDDYGMTWVRQAPGKGLEWVSSINWNVTHTDYAYSVKGRFTISRDNAKNTLFLQMNSLTPEDTAVYYCNQGWKIIPTDRRGHGTQVTVSS", "assayEndpoint": "% blocking of Herceptin binding", "result": "> 90%"}
